Some compounds, each annotated with its measured Population Fragmented Nuclei (%).
# Tested on: U2OS
# Test details: Multiplex assay against U2OS
# Assay type: toxicity, cell-based
# Experimental conditions: human, 12 h, 10 µM, compound concentration 10 uM, replicate 2
Metric: Population Fragmented Nuclei (%)

>>> print(df.to_string())
                                    compound                            metric  unit_tag  numeric_readout
 0  CC(C)COc1ccc(CNC(=O)N(Cc2ccc(F)cc2)C2CCN(C)CC2)cc1  Population Fragmented Nuclei (%)         %               18
 1  Cc1c(CC(=O)O)c2cccnc2n1Cc1ccc(S(C)(=O)=O)cc1C(F)(F)F  Population Fragmented Nuclei (%)         %               22
 2  CCCCC1=NC2(CCCC2)C(=O)N1Cc1ccc(-c2ccccc2-c2nnn[nH]2)cc1  Population Fragmented Nuclei (%)         %               18
 3  CCCCC(=O)N(Cc1ccc(-c2ccccc2-c2nnn[nH]2)cc1)[C@H](C(=O)O)C(C)C  Population Fragmented Nuclei (%)         %               24
 4  CN[C@@H](C)C(=O)N[C@H](C(=O)N1CCC[C@H]1C(=O)Nc1snnc1-c1ccccc1)C1CCCCC1  Population Fragmented Nuclei (%)         %               18
 5       O=C(CCCc1ccccc1)Nc1nc2ccccc2c(=O)s1  Population Fragmented Nuclei (%)         %               20
 6  CCc1cc2cc(NS(=O)(=O)c3ccc(C#N)cc3)ccc2n(CC)c1=O  Population Fragmented Nuclei (%)         %               13
 7  O=C(NCCN1CCC(n2c(=O)[nH]c3cc(Cl)ccc32)CC1)c1ccc(F)cc1 [HALOPEMIDE]  Population Fragmented Nuclei (%)         %               12
 8  CC(=O)Nc1cccc2c1c(Sc1ccc(Cl)cc1)c(C)n2CC(=O)O  Population Fragmented Nuclei (%)         %               19
 9  CC(/C=C1\SC(=S)N(CCCC(=O)Nc2ccc(C(=O)O)c(O)c2)C1=O)=C\c1ccccc1  Population Fragmented Nuclei (%)         %               16
10         CN1CCN(c2cc(-c3ccccc3)nc(N)n2)CC1  Population Fragmented Nuclei (%)         %                8
11  CN(C)C(=O)Cn1cc(-c2ccc(-c3cncc4ccccc34)cc2)cn1  Population Fragmented Nuclei (%)         %               18
12  CC(C)c1noc(N2CCC(COc3ccc(-c4ccc(S(C)(=O)=O)cc4)nc3)CC2)n1  Population Fragmented Nuclei (%)         %               20
13  Cc1cccc(NC(=O)CN2CCC(c3ccccn3)CC2)c1.Cl.Cl  Population Fragmented Nuclei (%)         %               21
14  Cc1noc(-c2ccc(-c3ccc(CC(=O)O)cc3)cc2)c1NC(=O)O[C@H](C)c1ccccc1Cl  Population Fragmented Nuclei (%)         %               11

====

# Tested on: U2OS
# Test details: Multiplex assay against U2OS
# Assay type: toxicity, cell-based
# Experimental conditions: human, 48 h, 10 µM, compound concentration 10 uM, replicate 2
The threshold is inclusive: Population Mitochondria Different-Phenotype (%) of exactly 3% counts as y; values below receive n.

>>> print(df.to_string())
                                   compound  target_system  answer_label
0  CC(/C=C1\SC(=S)N(CCCC(=O)Nc2ccc(C(=O)O)c(O)c2)C1=O)=C\c1ccccc1           U2OS             n
1  CN[C@@H](C)C(=O)N[C@H](C(=O)N1CCC[C@H]1C(=O)Nc1snnc1-c1ccccc1)C1CCCCC1 [GDC-0152]           U2OS             y
2  O=C(NCCN1CCC(n2c(=O)[nH]c3cc(Cl)ccc32)CC1)c1ccc(F)cc1 [HALOPEMIDE]           U2OS             y
3  C[C@H](N)COC(=O)[C@@H](CCCCN)NC(=O)Cc1c(-c2ccc3ccccc3c2)[nH]c2c1ccc1ccccc12           U2OS             n
4  Cl.N=C(N)NC(=O)Cc1c(Cl)cccc1Cl [GUANFACINE HYDROCHLORIDE]           U2OS             n
5  CC(=O)Nc1cccc2c1c(Sc1ccc(Cl)cc1)c(C)n2CC(=O)O [AZD1981]           U2OS             y
6  CN(C)C(=O)Cn1cc(-c2ccc(-c3cncc4ccccc34)cc2)cn1           U2OS             y

====

# Test system: HEK-293T
# Test details: Multiplex assay against HEK293T
# Type: toxicity, cell-based
# Experimental conditions: human, 24 h, 10 µM, compound concentration 10 uM, replicate 1
Measured Population Mitotic Cells (%) by item
Metric: Population Mitotic Cells (%)

                                    molecule  target_system  unit_tag  numeric_readout
 0  CC(C)(C)c1cc(NC(=O)Nc2ccc(-c3cn4c(n3)sc3cc(OCCN5CCOCC5)ccc34)cc2)no1       HEK-293T         %               37
 1  CC(/C=C1\SC(=S)N(CCCC(=O)Nc2ccc(C(=O)O)c(O)c2)C1=O)=C\c1ccccc1       HEK-293T         %               66
 2       O=C(CCCc1ccccc1)Nc1nc2ccccc2c(=O)s1       HEK-293T         %               66
 3  O=C1[C@H](Cc2ccc(O)cc2)N2C(=O)CCN(C(=O)NCc3ccccc3)[C@H]2CN1Cc1cccc2ccccc12       HEK-293T         %               31
 4         CN1CCN(c2cc(-c3ccccc3)nc(N)n2)CC1       HEK-293T         %               55
 5  COc1cccc2c1c(NS(=O)(=O)c1ccc(Cl)s1)nn2Cc1cccc(CNC(=O)C(C)(C)O)c1       HEK-293T         %               60
 6  CCCCC(=O)N(Cc1ccc(-c2ccccc2-c2nnn[nH]2)cc1)[C@H](C(=O)O)C(C)C       HEK-293T         %               79
 7  Br.CS(=O)(=O)Nc1c(O)ccc2c1CCCC2C1=NCCN1 (centres undefined)       HEK-293T         %               69
 8  COC[C@@H](c1ccc(C(F)(F)F)cc1)N1CCN(C2(C)CCN(C(=O)c3c(C)ncnc3C)CC2)C[C@@H]1C.O=C(O)/C=C\C(=O)O [VICRIVIROC MALEATE]       HEK-293T         %               66
 9  CC(C)c1noc(N2CCC(COc3ccc(-c4ccc(S(C)(=O)=O)cc4)nc3)CC2)n1       HEK-293T         %               35
10        CCCOc1ccc2[nH]cc(C3=CCNCC3)c2n1.Cl       HEK-293T         %               60
11  Cl.N=C(N)NC(=O)Cc1c(Cl)cccc1Cl [GUANFACINE HYDROCHLORIDE]       HEK-293T         %               53
12  C[C@H](N)COC(=O)[C@@H](CCCCN)NC(=O)Cc1c(-c2ccc3ccccc3c2)[nH]c2c1ccc1ccccc12       HEK-293T         %               58
13  CN(C)C(=O)Cn1cc(-c2ccc(-c3cncc4ccccc34)cc2)cn1       HEK-293T         %               51
14  N#Cc1c(Oc2cccc(OS(=O)(=O)CCCC(F)(F)F)c2)cccc1C(F)(F)F       HEK-293T         %               56
15  Cc1c(CC(=O)O)c2cccnc2n1Cc1ccc(S(C)(=O)=O)cc1C(F)(F)F       HEK-293T         %               66
16  CN[C@@H](C)C(=O)N[C@H](C(=O)N1CCC[C@H]1C(=O)Nc1snnc1-c1ccccc1)C1CCCCC1       HEK-293T         %               54
17  Cc1noc(-c2ccc(-c3ccc(CC(=O)O)cc3)cc2)c1NC(=O)O[C@H](C)c1ccccc1Cl       HEK-293T         %               60
18  CCc1cc2cc(NS(=O)(=O)c3ccc(C#N)cc3)ccc2n(CC)c1=O       HEK-293T         %               66
19  NCCc1cn(S(=O)(=O)c2c(Cl)nc3sccn23)c2ccccc12.O=C(O)C(=O)O       HEK-293T         %               25
20  COc1ccccc1N1CCN(C[C@@H](C(=O)NC(C)(C)C)c2ccccc2)CC1.Cl.Cl       HEK-293T         %               54
21  Cc1onc(-c2ccccc2Cl)c1C(=O)N(C)c1ccc(Cl)cc1       HEK-293T         %               54
22  CC(=O)Nc1cccc2c1c(Sc1ccc(Cl)cc1)c(C)n2CC(=O)O       HEK-293T         %               59
23  Cc1cnc(-c2cc(N3CCN(C(=O)CCS(C)(=O)=O)CC3)ncc2Cl)c(C)c1       HEK-293T         %               66
24  Cl.NCCc1ccc(O)c(O)c1 [DOPAMINE HYDROCHLORIDE]       HEK-293T         %               60
25  CCCCCC(O)/C=C/[C@H]1C(=O)CC(O)C1C/C=C\CCCC(=O)O (some centres undefined)       HEK-293T         %               72
26  Cc1cccc(NC(=O)CN2CCC(c3ccccn3)CC2)c1.Cl.Cl       HEK-293T         %               40
27    N#Cc1cc(F)cc(-c2nc(-c3ccc(F)cn3)no2)c1       HEK-293T         %               58
28  O=C(NCCN1CCC(n2c(=O)[nH]c3cc(Cl)ccc32)CC1)c1ccc(F)cc1 [HALOPEMIDE]       HEK-293T         %               72
